# Protocol description: Inhibition of human lysosomal beta-hexosaminidase
Recorded endpoint: Ki (µM)
Give bare numbers, in µM.

Which Ki value belongs to `CCNC1=N[C@@H]2[C@@H](O)[C@H](O)[C@@H](CO)O[C@@H]2S1` ?
750
